The values you see were collected from paper PMC8064491.

testName: Cytotoxicity by intracellular ATP levels
Type: cell-based
details: human, Huh5-2 cells, read-out: HCV Replicon 1b CC50
Catalogue of CC50 at 72 h readings, one per entry.
measurementLabel: CC50 at 72 h (µM)

* CC(C)(C)OC(=O)N1CCCC(C(=O)Nc2ccc3c(c2)Cc2cc(NC(=O)C4CCCN(C(=O)OC(C)(C)C)C4)ccc2-3)C1 (stereo not drawn) | 45
* CCOC(=O)N[C@@H](C(=O)N1CCC[C@H]1C(=O)Nc1ccc2c(c1)Cc1cc(NC(=O)[C@@H]3CCCN3C(=O)[C@H](NC(=O)OCC)C(C)C)ccc1-2)C(C)C | 79.5

###

Tested on: HCV subgenomic reporter replicon of genotype 1b (strain Con1)
testName: Anti-HCV 1b activity, luciferase reporter replicon assay in Huh5-2 cells
Assay type: cell-based, Hepatitis C virus
details: Hepatitis C virus, Huh-5-2, 72 h, read-out: HCV Replicon 1b EC50
pEC50: −log10 of the molar value.
# reported pEC50; entries follow
measurementLabel: pEC50

• CC(C)[C@H](NC(=O)OCc1ccccc1)C(=O)N1CCC[C@H]1C(=O)Nc1ccc2c(c1)Cc1cc(NC(=O)[C@@H]3CCCN3C(=O)[C@@H](NC(=O)OCc3ccccc3)C(C)C)ccc1-2 = 6.01
• COC(=O)N[C@@H](C(=O)N1CCC[C@H]1C(=O)Nc1ccc2c(c1)Cc1cc(NC(=O)[C@@H]3CCCN3C(=O)[C@H](NC(=O)OC)c3ccccc3)ccc1-2)c1ccccc1 = 9.85

###

We begin with a simple list: items and their reported pEC50.
Tested on: HCV subgenomic reporter replicon of genotype 1b (strain Con1)
testName: Anti-HCV 1b activity, luciferase reporter replicon assay in Huh5-2 cells
Format: cell-based, Hepatitis C virus
details: Hepatitis C virus, Huh-5-2, 72 h, read-out: HCV Replicon 1b EC50
pEC50: −log10 of the molar value.
measurementLabel: pEC50

• CCCCOC(=O)N[C@@H](C(=O)N1CCC[C@H]1C(=O)Nc1ccc2c(c1)Cc1cc(NC(=O)[C@@H]3CCCN3C(=O)[C@H](NC(=O)OCCCC)c3ccccc3)ccc1-2)c1ccccc1 = 8.39
• COC(=O)N[C@@H](CC(C)C)C(=O)N1CCCC(C(=O)Nc2ccc3c(c2)Cc2cc(NC(=O)C4CCCN(C(=O)[C@H](CC(C)C)NC(=O)OC)C4)ccc2-3)C1 (stereo partly drawn) = 6.54

###

testName: Cytotoxicity by intracellular ATP levels
Type: cell-based
details: human, Huh5-2 cells, read-out: HCV Replicon 1b CC50
measurementLabel: CC50 at 72 h

- COC(=O)N[C@H](C(=O)N1CCCC(C(=O)Nc2ccc3c(c2)Cc2cc(NC(=O)C4CCCN(C(=O)[C@@H](NC(=O)OC)c5ccccc5)C4)ccc2-3)C1)c1ccccc1 (stereo partly shown): > 100 µM
- CCCCOC(=O)N[C@H](C(=O)N1CCC[C@H]1C(=O)Nc1ccc2c(c1)Cc1cc(NC(=O)[C@@H]3CCCN3C(=O)[C@@H](NC(=O)OCCCC)c3ccccc3)ccc1-2)c1ccccc1: > 100 µM
- COC(=O)N[C@@H](C(=O)N1CCC[C@H]1C(=O)Nc1ccc2c(c1)Cc1cc(NC(=O)[C@@H]3CCCN3C(=O)[C@H](NC(=O)OC)C(C)C)ccc1-2)C(C)C: > 100 µM
- CCC(C)[C@H](NC(=O)OC)C(=O)N1CCCC(C(=O)Nc2ccc3c(c2)Cc2cc(NC(=O)C4CCCN(C(=O)[C@@H](NC(=O)OC)C(C)CC)C4)ccc2-3)C1 (stereo partly shown): 98.3 µM
- COC(=O)N[C@H](C(=O)N1CCC[C@H]1c1nc(-c2ccc(-c3ccc(-c4c[nH]c([C@@H]5CCCN5C(=O)[C@@H](NC(=O)OC)C(C)C)n4)cc3)cc2)c[nH]1)C(C)C [Daclatasvir, reference compound]: 17.7 µM
- CC(C)C[C@@H](NC(=O)OCc1ccccc1)C(=O)N1CCC[C@H]1C(=O)Nc1ccc2c(c1)Cc1cc(NC(=O)[C@@H]3CCCN3C(=O)[C@@H](CC(C)C)NC(=O)OCc3ccccc3)ccc1-2: > 100 µM
- COC(=O)N[C@@H](C(=O)N1CCC[C@H]1C(=O)Nc1ccc2c(c1)Cc1cc(NC(=O)[C@@H]3CCCN3C(=O)[C@H](NC(=O)OC)c3ccccc3)ccc1-2)c1ccccc1: 95.4 µM
- O=C(N[C@@H](C(=O)N1CCC[C@H]1C(=O)Nc1ccc2c(c1)Cc1cc(NC(=O)[C@@H]3CCCN3C(=O)[C@H](NC(=O)OCc3ccccc3)c3ccccc3)ccc1-2)c1ccccc1)OCc1ccccc1: > 100 µM
- O=C(N[C@H](C(=O)N1CCC[C@H]1C(=O)Nc1ccc2c(c1)Cc1cc(NC(=O)[C@@H]3CCCN3C(=O)[C@@H](NC(=O)OCc3ccccc3)c3ccccc3)ccc1-2)c1ccccc1)OCc1ccccc1: > 100 µM
- CCOC(=O)N[C@@H](C(=O)N1CCC[C@H]1C(=O)Nc1ccc2c(c1)Cc1cc(NC(=O)[C@@H]3CCCN3C(=O)[C@H](NC(=O)OCC)c3ccccc3)ccc1-2)c1ccccc1: > 100 µM
- CCOC(=O)N[C@H](C(=O)N1CCC[C@H]1C(=O)Nc1ccc2c(c1)Cc1cc(NC(=O)[C@@H]3CCCN3C(=O)[C@@H](NC(=O)OCC)c3ccccc3)ccc1-2)c1ccccc1: > 100 µM
- CCCCOC(=O)N[C@@H](C(=O)N1CCC[C@H]1C(=O)Nc1ccc2c(c1)Cc1cc(NC(=O)[C@@H]3CCCN3C(=O)[C@H](NC(=O)OCCCC)C(C)C)ccc1-2)C(C)C: > 100 µM
- CCCCOC(=O)N[C@H](CC(C)C)C(=O)N1CCC[C@H]1C(=O)Nc1ccc2c(c1)Cc1cc(NC(=O)[C@@H]3CCCN3C(=O)[C@@H](CC(C)C)NC(=O)OCCCC)ccc1-2: 34.2 µM
- COC(=O)N[C@@H](CC(C)C)C(=O)N1CCCC(C(=O)Nc2ccc3c(c2)Cc2cc(NC(=O)C4CCCN(C(=O)[C@H](CC(C)C)NC(=O)OC)C4)ccc2-3)C1 (stereo partly shown): > 100 µM
- CCOC(=O)N[C@H](C(=O)N1CCC[C@H]1C(=O)Nc1ccc2c(c1)Cc1cc(NC(=O)[C@@H]3CCCN3C(=O)[C@@H](NC(=O)OCC)C(C)C)ccc1-2)C(C)C: > 100 µM
- COC(=O)N[C@H](CC(C)C)C(=O)N1CCC[C@H]1C(=O)Nc1ccc2c(c1)Cc1cc(NC(=O)[C@@H]3CCCN3C(=O)[C@@H](CC(C)C)NC(=O)OC)ccc1-2: > 100 µM
- COC(=O)N[C@H](C(=O)N1CCC[C@H]1C(=O)Nc1ccc2c(c1)Cc1cc(NC(=O)[C@@H]3CCCN3C(=O)[C@@H](NC(=O)OC)c3ccccc3)ccc1-2)c1ccccc1: 87.5 µM
- CCCCOC(=O)N[C@H](C(=O)N1CCC[C@H]1C(=O)Nc1ccc2c(c1)Cc1cc(NC(=O)[C@@H]3CCCN3C(=O)[C@@H](NC(=O)OCCCC)C(C)C)ccc1-2)C(C)C: > 100 µM
- CCCCOC(=O)N[C@@H](C(=O)N1CCC[C@H]1C(=O)Nc1ccc2c(c1)Cc1cc(NC(=O)[C@@H]3CCCN3C(=O)[C@H](NC(=O)OCCCC)c3ccccc3)ccc1-2)c1ccccc1: > 100 µM
- COC(=O)N[C@H](C(=O)N1CCCC(C(=O)Nc2ccc3c(c2)Cc2cc(NC(=O)C4CCCN(C(=O)[C@@H](NC(=O)OC)C(C)C)C4)ccc2-3)C1)C(C)C (stereo partly shown): > 100 µM
- CCOC(=O)N[C@H](CC(C)C)C(=O)N1CCC[C@H]1C(=O)Nc1ccc2c(c1)Cc1cc(NC(=O)[C@@H]3CCCN3C(=O)[C@@H](CC(C)C)NC(=O)OCC)ccc1-2: > 100 µM
- CC(C)[C@H](NC(=O)OCc1ccccc1)C(=O)N1CCC[C@H]1C(=O)Nc1ccc2c(c1)Cc1cc(NC(=O)[C@@H]3CCCN3C(=O)[C@@H](NC(=O)OCc3ccccc3)C(C)C)ccc1-2: > 100 µM
